STUDY SYSTEM: hTLR7 (Homo sapiens)
Sequence (Q9NYK1 27-1049): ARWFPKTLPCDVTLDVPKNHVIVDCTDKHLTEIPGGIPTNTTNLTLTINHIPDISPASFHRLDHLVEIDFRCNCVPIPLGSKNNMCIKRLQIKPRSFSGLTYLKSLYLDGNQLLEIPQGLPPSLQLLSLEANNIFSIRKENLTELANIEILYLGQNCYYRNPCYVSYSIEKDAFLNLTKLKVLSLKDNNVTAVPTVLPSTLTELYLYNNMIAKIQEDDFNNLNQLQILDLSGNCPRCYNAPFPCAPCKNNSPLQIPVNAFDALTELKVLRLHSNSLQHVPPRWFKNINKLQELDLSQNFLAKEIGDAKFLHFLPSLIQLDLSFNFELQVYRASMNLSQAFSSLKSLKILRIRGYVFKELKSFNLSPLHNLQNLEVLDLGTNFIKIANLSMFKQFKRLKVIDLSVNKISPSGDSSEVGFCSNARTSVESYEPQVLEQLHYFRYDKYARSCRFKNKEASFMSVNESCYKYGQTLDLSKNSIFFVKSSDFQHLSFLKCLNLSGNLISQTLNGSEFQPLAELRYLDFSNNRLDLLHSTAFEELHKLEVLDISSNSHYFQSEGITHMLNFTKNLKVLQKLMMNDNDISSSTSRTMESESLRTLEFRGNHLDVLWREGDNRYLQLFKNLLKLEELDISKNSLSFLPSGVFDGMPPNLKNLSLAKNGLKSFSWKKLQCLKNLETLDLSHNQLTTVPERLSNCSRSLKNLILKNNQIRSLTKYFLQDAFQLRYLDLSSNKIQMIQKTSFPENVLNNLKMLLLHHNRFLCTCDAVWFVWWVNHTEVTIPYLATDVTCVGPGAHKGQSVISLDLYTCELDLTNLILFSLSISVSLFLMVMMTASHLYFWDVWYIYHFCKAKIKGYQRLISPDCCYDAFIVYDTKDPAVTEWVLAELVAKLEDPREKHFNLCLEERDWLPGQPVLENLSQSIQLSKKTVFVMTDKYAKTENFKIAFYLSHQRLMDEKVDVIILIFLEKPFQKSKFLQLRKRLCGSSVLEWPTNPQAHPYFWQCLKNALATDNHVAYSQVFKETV
PROTOCOL: Human TLR7 Reporter Assay
EXPERIMENTAL PARAMETERS: HEK-Blue hTLR7 cells, 16 hours, normalized to CL097 (6 μM) and DMSO
pEC50: −log10 of the molar value.
MEASURED PROPERTY: pEC50

{"MOLECULE": "CCCCNc1nc(N)nc2cn(Cc3c(OC)cc(N4CCNCC4)cc3OC)nc12 [Compound 64]", "ASSAY RESULT": 6.29}
{"MOLECULE": "CCCC(Nc1nc(N)nc2cn(Cc3c(OC)cccc3OC)nc12)C(F)F (stereo not shown) [Compound 135]", "ASSAY RESULT": 6.46}
{"MOLECULE": "CCCCNc1nc(N)nc2cn(Cc3cncnc3OC)nc12 [Compound 106]", "ASSAY RESULT": 6.51}
{"MOLECULE": "CCC[C@@H](CO)Nc1nc(N)nc2cn(Cc3ccc(CNC)cc3OC)nc12 [Compound 155]", "ASSAY RESULT": 5.61}
{"MOLECULE": "COc1cccc(OC)c1Cn1cc2nc(N)nc(NCCC(C)O)c2n1 (stereo not shown) [Compound 52]", "ASSAY RESULT": 5.55}
{"MOLECULE": "CCCC(Nc1nc(N)nc2cn(Cc3c(OC)cccc3OC)nc12)C(F)(F)F (stereo not shown) [Compound 126]", "ASSAY RESULT": 6.15}
{"MOLECULE": "CCCCCNc1nc(N)nc2cn(Cc3c(OC)cccc3OC)nc12 [Compound 28]", "ASSAY RESULT": 6.67}
{"MOLECULE": "CCCCNc1nc(N)nc2cn(Cc3ccc(CN)cc3OC)nc12 [Compound 137]", "ASSAY RESULT": 6.36}

I = CCCCNc1nc(N)nc2cn(Cc3ccc(CC(C)N)cc3OC)nc12 (stereo not shown) [Compound 178]
II = CCCCNc1nc(N)nc2cn(Cc3nc(C)no3)nc12 [Compound 170]
Request: Parameter metric = pEC50. Return the lower-valued option from I and II . Identify your pick by its label.
Response: II
(II: 5.81, I: 6.53)

I = CCCCNc1nc(N)nc2cn(Cc3c(OC)cc(N4C(=O)C=CC4=O)cc3OC)nc12 [Compound 98]
II = CCCCNc1nc(N)nc2cn(CC3CCCCC3)nc12 [Compound 7]
Request: For the two items I and II , which reports the higher pEC50 value? When you have decided, please share the label of that item.
Response: I

A = CCCCNc1nc(N)nc2cn(Cc3ccc(CN(C)C)o3)nc12 [Compound 186]
B = COc1cccc(OC)c1Cn1cc2nc(N)nc(NCC(C)C)c2n1 [Compound 50]
C = CCC[C@@H](CO)Nc1nc(N)nc2cn(Cc3c(OC)cccc3OC)nc12 [Compound 108]
Request: Hi! Can you put these in order of pEC50, lowest number first? Would you mind listing the labels in the order requested?
Response: B, A, C

I = CCCCNc1nc(N)nc2cn(Cc3ccccc3C)nc12 [Compound 3]
II = CCCCNc1nc(N)nc2cn(Cc3c(OC)cc(CNC(=O)C4CCC(CN5C(=O)C=CC5=O)CC4)cc3OC)nc12 (stereo not shown) [Compound 72]
Request: Name the one with the greater pEC50 value, either I or II as given. State your choice using its label.
Response: II
(II: 6.22, I: 5.91)
